Cited source for all entries: a melting point compilation (Tetko et al.; mined from patent text by program, amines drawn as free bases though some values may be those of a salt)

property: melting point

Inquiry: Tell me the measured melting point of N#Cc1cc(-c2ccoc2)c2ccc(OCc3cccc(-c4ccccc4)n3)cc2c1 , please.
Reply text: 131 to 133 °C

Inquiry: Tell me the measured melting point of COc1ccc2c(c1)C[C@@H](C(N)=O)CC2 , please.
Reply text: 159 to 161 °C

Inquiry: Tell me the measured melting point of Cc1ccc(-c2nc3c(C)cccc3c(=O)[nH]2)c(Cl)c1 , please.
Reply text: 234 °C

Inquiry: Tell me the measured melting point of CC1=C(C(=O)OC(C)(C)C)C(c2ccccc2Cl)c2c[nH]nc2N1 (stereo unspecified) , please.
Reply text: 207 °C

Inquiry: Tell me the measured melting point of Cc1nc(C)c(Cl)c(NCc2cccc(O)c2)n1 , please.
Reply text: 194 to 197 °C

Inquiry: Tell me the measured melting point of Nc1ncc(-c2cc(Cl)c([N+](=O)[O-])c(Cl)c2Cl)c(N)n1 , please.
Reply text: 293 to 295 °C

Inquiry: Tell me the measured melting point of O=C(Oc1ccc(Cl)cc1)C1CCCc2ccc([N+](=O)[O-])cc21 (stereo unspecified) , please.
Reply text: 108 to 109 °C

Inquiry: Tell me the measured melting point of O=C(Oc1ccccc1)N1C(=O)[C@H](O)[C@@H]1c1ccccc1 , please.
Reply text: 125 to 126 °C

Inquiry: Tell me the measured melting point of C=CCNC(=O)C(C)N (stereo unspecified) , please.
Reply text: 77.5 to 78 °C

Inquiry: Tell me the measured melting point of CC(C)Cn1cnc2c(N)nc3ccc(-n4cccc4)cc3c21 , please.
Reply text: 228 to 232 °C

Inquiry: Tell me the measured melting point of CC(C)OC(=Cn1ccnc1)c1ccc(Cl)cc1Cl , please.
Reply text: 184 to 186 °C

Inquiry: Tell me the measured melting point of CCCCCCCCCCCCCCCCCCCC(=O)Nc1ccn(C2OC(CO)C(O)C2O)c(=O)n1 (stereo unspecified) , please.
Reply text: 138 to 142 °C

Inquiry: Tell me the measured melting point of N#Cc1cccc(NC(=O)c2ccc3ccccc3c2)c1 , please.
Reply text: 138 to 140 °C

Inquiry: Tell me the measured melting point of COc1cc(C)cc2c(Br)ccc(OC(C)C)c12 , please.
Reply text: 78 °C

Inquiry: Tell me the measured melting point of COc1cccc2c1Oc1cc(Cl)ccc1C2 , please.
Reply text: 106 to 108 °C

Inquiry: Tell me the measured melting point of COc1cc2nc(SCc3nccc(N4CCOCC4)c3Cl)[nH]c2cc1OC , please.
Reply text: 109 to 112 °C

Inquiry: Tell me the measured melting point of CC(=O)N1CCN(Cc2cnc(-c3cc4cccc(NS(=O)(=O)c5cccs5)c4[nH]3)s2)CC1 , please.
Reply text: 149 to 150 °C

Inquiry: Tell me the measured melting point of CCOC(=O)COc1c(-c2ccccc2)cc(O)cc1-c1ccccc1 , please.
Reply text: 91 to 93 °C

Inquiry: Tell me the measured melting point of CS(=O)(=O)c1ccc(-n2nc(C(F)(F)F)cc2-c2ccc(-c3nccs3)cc2)cc1 , please.
Reply text: 206 to 207 °C

Inquiry: Tell me the measured melting point of CCCC(=O)Nc1n[nH]c2cc(-c3ccc(O)cc3)c(-c3ccccc3)cc12 , please.
Reply text: 220 °C

Inquiry: Tell me the measured melting point of Cc1cccc(-c2[nH]c(C(C)C)nc2-c2ccc(F)c(-c3ccc(OCCN4CCCC4=O)cc3)c2)n1 , please.
Reply text: 95 °C
